System: human PBMCs
Experiment: Cellular Functional Assay III: IFN-β production from human PBMCs
Assay type: cell-based
Details: PBMC, Donor 1, 4 hours, read-out: Potency (IFN-β production) in Human PBMCs (EC50s) Donor 1
So I've got a bunch of molecules here, and I need their EC50 values.

State its EC50: "CCn1nc(C)cc1C(=O)Nc1nc2cc(C(N)=O)cnc2n1C/C=C/Cn1c(NC(=O)c2cc(C)nn2CC)nc2cc(C(N)=O)cc(OCCCN3CCN(C(C)=O)CC3)c21"
100 to 500 nM

State its EC50: "CCn1nc(C)cc1C(=O)Nc1nc2cc(C(N)=O)cnc2n1C/C=C/Cn1c(NC(=O)c2cc(C)nn2CC)nc2cc(C(N)=O)cc(OCCCN3CCOCC3)c21"
100 to 500 nM

State its EC50: "CCn1nc(C)cc1C(=O)Nc1nc2cc(C(N)=O)cnc2n1C/C=C/Cn1c(NC(=O)c2cc(C)nn2CC)nc2cc(C(N)=O)cc(OCCCN3CCC[C@H]3COC(F)F)c21"
< 100 nM

State its EC50: "[2H]C1([2H])OC([2H])([2H])C([2H])([2H])N(CCCOc2cc(C(N)=O)cc3nc(NC(=O)c4cc(C)nn4CC)n(C/C=C/Cn4c(NC(=O)c5cc(C)nn5CC)nc5cc(C(N)=O)cnc54)c23)C1([2H])[2H]"
100 to 500 nM

These data points were gathered from patent US20200031825A1.
